# Target or system: UniProt P34969
# Sequence (P34969 whole entry): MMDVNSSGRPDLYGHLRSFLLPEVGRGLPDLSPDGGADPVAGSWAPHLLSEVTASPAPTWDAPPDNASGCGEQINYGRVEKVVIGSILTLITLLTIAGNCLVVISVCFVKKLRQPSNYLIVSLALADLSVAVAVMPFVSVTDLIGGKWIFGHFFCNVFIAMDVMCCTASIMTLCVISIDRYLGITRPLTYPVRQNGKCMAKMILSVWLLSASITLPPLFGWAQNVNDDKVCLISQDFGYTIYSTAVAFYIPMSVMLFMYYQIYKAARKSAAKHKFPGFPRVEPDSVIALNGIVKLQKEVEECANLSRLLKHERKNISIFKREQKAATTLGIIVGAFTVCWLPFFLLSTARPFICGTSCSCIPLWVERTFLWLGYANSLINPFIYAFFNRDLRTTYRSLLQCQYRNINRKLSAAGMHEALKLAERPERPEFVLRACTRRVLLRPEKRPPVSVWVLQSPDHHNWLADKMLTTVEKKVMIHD
# Procedure summary: competitive radioligand binding, Serotoninergic 5-HT7
# Study conditions: compound concentration of 1 μM
Counter-ions that a name gives are not always drawn.
Reported values of radio-labelled ligand displacement, Serotoninergic 5-HT7 for individual entries
Write the answer as a number in %, unit excluded.

Name the recorded radio-labelled ligand displacement, Serotoninergic 5-HT7 for CN1CCc2c(c3cc(Cl)sc3n2CCCc2cccc(F)c2)C1 [3.12(6)•HCl] .
95

Fill in: radio-labelled ligand displacement, Serotoninergic 5-HT7 of Cc1ccc(C=CCn2c3c(c4cc(C)sc42)CN(C)CC3)cc1 [3.11(2)•HCl] is ___
85

Field request: radio-labelled ligand displacement, Serotoninergic 5-HT7 | item: Cc1cc2c3c(n(CCc4ccc(Cl)cc4)c2s1)C(C)CN(C)C3 (stereo not drawn) [3.6(4)•HCl]
99

Return reported radio-labelled ligand displacement, Serotoninergic 5-HT7; argument: Cc1cc2c3c(n(CC(O)c4ccccc4)c2s1)CCN(C)C3.Cl (stereo not drawn) [3.7(1)•HCl]
96

Which radio-labelled ligand displacement, Serotoninergic 5-HT7 value belongs to Cc1csc2c1c1c(n2CCCc2ccccc2)CCN(C)C1 [3.12(1)•HCl] ?
98

Give its radio-labelled ligand displacement, Serotoninergic 5-HT7 value. Item: Cc1ccc(CCCn2c3c(c4c(Cl)csc42)CN(C)CC3)cc1 [3.12(5)•HCl]
96

====

Reported inhibition at 1 µM is given for each of the following compounds.
# Target or system: Serotoninergic 5-HT1A (Homo sapiens, UniProt P08908)
# Sequence (P08908 1-422): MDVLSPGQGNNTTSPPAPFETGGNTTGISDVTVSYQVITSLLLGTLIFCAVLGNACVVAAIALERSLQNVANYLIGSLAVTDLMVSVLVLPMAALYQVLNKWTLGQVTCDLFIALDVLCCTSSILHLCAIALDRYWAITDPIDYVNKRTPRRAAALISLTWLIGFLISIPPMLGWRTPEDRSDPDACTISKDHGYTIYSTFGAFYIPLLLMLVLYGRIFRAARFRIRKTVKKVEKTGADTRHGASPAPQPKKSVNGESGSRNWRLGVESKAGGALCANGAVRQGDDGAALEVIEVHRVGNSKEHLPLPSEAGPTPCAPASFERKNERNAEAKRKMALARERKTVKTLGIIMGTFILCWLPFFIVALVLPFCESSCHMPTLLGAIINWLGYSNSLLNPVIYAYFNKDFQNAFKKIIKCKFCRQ
# Procedure summary: competitive radioligand binding, Serotoninergic 5-HT1A
# Study conditions: compound concentration of 1 μM; read-out: radio-labelled ligand displacement, Serotoninergic 5-HT1A
Counter-ions that a name gives are not always drawn.
Hi! Could you send only the number? It should be in %, unit omitted.

Solved entries (count: 4):
Cc1ccc(Cn2c3c(c4sc(Cl)cc42)C(C)N(C)C(C)C3)cn1 (centres unmarked) [2.5(4)•HCl]
35
Cc1cc2c(s1)c1c(n2Cc2ccccc2)CCN(C)C1.Cl [2.5(1)•HCl]
3
Cc1cc2c3c(n(CCc4ccccc4)c2s1)CCN(C)C3.Cl [3.6(1)•HCl]
48
Cc1cc2c3c(n(Cc4ccccc4)c2s1)CCN(C)C3.Cl [3.5(1)•HCl]
42

Given Cc1cc2c3c(n(Cc4ccccc4)c2s1)CC1CCC3N1C (centres unmarked) [3.13(1)•HCl] , state its recorded inhibition at 1 µM.
19

====

# Target or system: Serotoninergic 5-HT2C (Homo sapiens)
# Sequence (P28335 33-458): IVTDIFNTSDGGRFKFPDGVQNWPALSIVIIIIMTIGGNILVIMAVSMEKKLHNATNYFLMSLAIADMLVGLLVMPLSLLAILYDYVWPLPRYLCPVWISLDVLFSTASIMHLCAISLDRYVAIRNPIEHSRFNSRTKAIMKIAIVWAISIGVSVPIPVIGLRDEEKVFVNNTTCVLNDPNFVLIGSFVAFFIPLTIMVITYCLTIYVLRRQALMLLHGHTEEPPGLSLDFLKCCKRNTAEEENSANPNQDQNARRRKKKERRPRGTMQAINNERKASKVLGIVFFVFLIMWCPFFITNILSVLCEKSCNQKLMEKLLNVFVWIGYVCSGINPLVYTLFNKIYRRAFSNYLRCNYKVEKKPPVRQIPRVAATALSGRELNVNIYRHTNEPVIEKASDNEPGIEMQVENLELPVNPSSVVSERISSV
# Procedure summary: competitive radioligand binding, Serotoninergic 5-HT2C
# Study conditions: compound concentration of 1 μM; read-out: radio-labelled ligand displacement, Serotoninergic 5-HT2C
Where a name gives a salt, the structure may show the parent alone.
A collection of molecules and their measured inhibition at 1 µM
Report as a plain number; the unit % is understood.

Illustrative cases are given below, each with its answer.
Cc1ccc(Cn2c3c(c4sc(Cl)cc42)C(C)N(C)C(C)C3)cn1 (stereo not shown) [2.5(4)•HCl]
91
CC1Cc2c(c3sc(Cl)cc3n2C#Cc2cccc(F)c2)C(C)N1C (stereo not shown) [2.10(3)•HCl]
31
Cc1ccc(CCCn2c3c(c4scc(Cl)c42)CN(C)CC3)cn1 [2.12(5)•HCl]
99

For the record Cc1cc2c(s1)c1c(n2-c2cccc(F)c2)CCN(C)C1 [2.4(3)•HCl] , what value of inhibition at 1 µM is listed for Serotoninergic 5-HT2C (Homo sapiens)?
33

====

# Target or system: Dopaminergic D2L (Homo sapiens, UniProt P14416)
# Sequence (P14416 whole entry): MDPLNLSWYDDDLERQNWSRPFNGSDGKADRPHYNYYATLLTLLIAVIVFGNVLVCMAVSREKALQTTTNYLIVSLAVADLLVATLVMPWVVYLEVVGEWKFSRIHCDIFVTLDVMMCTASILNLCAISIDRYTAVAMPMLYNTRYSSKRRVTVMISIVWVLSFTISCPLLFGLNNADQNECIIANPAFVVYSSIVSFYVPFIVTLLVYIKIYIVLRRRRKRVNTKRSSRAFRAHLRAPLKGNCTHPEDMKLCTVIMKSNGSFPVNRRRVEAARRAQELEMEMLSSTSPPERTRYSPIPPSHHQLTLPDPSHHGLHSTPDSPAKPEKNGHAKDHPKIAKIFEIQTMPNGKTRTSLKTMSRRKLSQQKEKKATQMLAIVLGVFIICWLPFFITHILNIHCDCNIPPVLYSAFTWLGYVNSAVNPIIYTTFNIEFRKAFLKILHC
# Procedure summary: competitive radioligand binding, Dopaminergic D2L
# Study conditions: compound concentration of 1 μM
Structures can show the parent of a compound that is named as a salt.
Property: radio-labelled ligand displacement, Dopaminergic D2L (%)
Numeric only. Scale: %

Cc1ccc(C=CCn2c3c(c4cc(C)sc42)CN(C)CC3)cc1 [3.11(2)•HCl]
50

Request the reported radio-labelled ligand displacement, Dopaminergic D2L associated with Cc1csc2c1c1c(n2CCCc2ccccc2)CCN(C)C1 [3.12(1)•HCl]
82

Consider the molecule shown here: CN1CCc2c(c3cc(Cl)sc3n2CCCc2cccc(F)c2)C1 [3.12(6)•HCl] What is its recorded radio-labelled ligand displacement, Dopaminergic D2L?
81

Please look up its radio-labelled ligand displacement, Dopaminergic D2L: Cc1cc2c3c(n(CCc4ccc(Cl)cc4)c2s1)C(C)CN(C)C3 (stereo not drawn) [3.6(4)•HCl]
45

What value of measured radio-labelled ligand displacement, Dopaminergic D2L is listed for Cc1ccc(CCCn2c3c(c4c(Cl)csc42)CN(C)CC3)cc1 [3.12(5)•HCl] ?
35

Item Cc1cc2c3c(n(CC(O)c4ccccc4)c2s1)CCN(C)C3.Cl (stereo not drawn) [3.7(1)•HCl] has what recorded radio-labelled ligand displacement, Dopaminergic D2L?
35

====

# System: Therapeutic targets (Adrenergic, Dopaminergic, Histaminergic, Serotoninergic)
# Procedure summary: Profiles of pharmacological activity in competitive radioligand binding (whole panel)
# Study conditions: 1 μM, grades not defined
Structures can show the parent of a compound that is named as a salt.
Property: grade of the activity profile (poor / satisfactory / good)

Completed entries (count: 5):
Cc1ccc(Cn2c3c(c4sc(Cl)cc42)C(C)N(C)C(C)C3)cn1 (stereo not shown) [2.5(4)•HCl]
satisfactory
Cc1ccc(CCCn2c3c(c4c(Cl)csc42)CN(C)CC3)cc1 [3.12(5)•HCl]
good
Cc1csc2c1c1c(n2CCCc2ccccc2)CCN(C)C1 [3.12(1)•HCl]
good
Cc1cc2c3c(n(CCc4ccc(Cl)cc4)c2s1)C(C)CN(C)C3 (stereo not shown) [3.6(4)•HCl]
good
Cc1cc2c(s1)c1c(n2-c2cccc(F)c2)CCN(C)C1 [2.4(3)•HCl]
poor

Now examine the next entry.
What is its grade of the activity profile (poor / satisfactory / good) for Therapeutic targets (Adrenergic, Dopaminergic, Histaminergic, Serotoninergic)? Entry: CN1CCc2c(c3cc(Cl)sc3n2CCCc2cccc(F)c2)C1 [3.12(6)•HCl]
good

====

# Target or system: Serotoninergic 5-HT1A (Homo sapiens, UniProt P08908)
# Procedure summary: competitive radioligand binding, Serotoninergic 5-HT1A
# Study conditions: compound concentration of 1 μM
Counter-ions that a name gives are not always drawn.
Property: radio-labelled ligand displacement, Serotoninergic 5-HT1A (%)
Entry rule: numbers only, all in %.

# example entries with known answers
Cc1cc2c3c(n(CCc4ccc(Cl)cc4)c2s1)C(C)CN(C)C3 (stereo not drawn) [3.6(4)•HCl]
29
Cc1ccc(C=CCn2c3c(c4cc(C)sc42)CN(C)CC3)cc1 [3.11(2)•HCl]
21
Cc1cc2c3c(n(CC(O)c4ccccc4)c2s1)CCN(C)C3.Cl (stereo not drawn) [3.7(1)•HCl]
18
Cc1ccc(CCCn2c3c(c4c(Cl)csc42)CN(C)CC3)cc1 [3.12(5)•HCl]
18
Cc1csc2c1c1c(n2CCCc2ccccc2)CCN(C)C1 [3.12(1)•HCl]
43

GET /values?readout=radio-labelled ligand displacement, Serotoninergic 5-HT1A&system=Serotoninergic 5-HT1A (Homo sapiens, UniProt P08908)&item= CN1CCc2c(c3cc(Cl)sc3n2CCCc2cccc(F)c2)C1 [3.12(6)•HCl]
50
